procedureText: in vivo
conditionContext: male, C57BL/6N, mouse, plasma, ip, 25 mg/kg
measuredParameter: AUC (µM·h)
Give bare numbers, in µM·h.

Looking up CS(=O)(=O)OCCCCOS(C)(=O)=O , I found its AUC recorded as 65.5

----------
procedureText: Busulphan kinetics in mice (alone, after PTU pretreatment, or with high-dose THT)
conditionContext: male, C57BL/6N, mouse, plasma, ip, 25 mg/kg, AUC, Group 1: mice, Bu 25mg/kg i.p. alone; mean
measuredParameter: AUC (µM·h)
One number for each entry, in µM·h.

Looking up CS(=O)(=O)OCCCCOS(C)(=O)=O [Bu, Busulphan] , I found its AUC recorded as 44.3
